- target system: T1, human TIGIT over-expressed on cells (human, UniProt Q495A1 22-244)
- T1 construct: also called CHO-K1/human TIGIT cells; CHO cells expressing human TIGIT
- T1 sequence: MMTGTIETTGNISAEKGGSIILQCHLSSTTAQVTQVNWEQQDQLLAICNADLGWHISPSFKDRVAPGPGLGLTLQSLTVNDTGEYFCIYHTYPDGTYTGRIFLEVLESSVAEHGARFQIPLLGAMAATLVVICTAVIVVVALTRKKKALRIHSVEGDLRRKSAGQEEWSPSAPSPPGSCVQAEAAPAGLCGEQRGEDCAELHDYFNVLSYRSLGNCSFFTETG
- test description: FACS, CHO-K1 cells over-expressing human TIGIT
# Bottom (best-fit) per record follows

binder	Bottom (best-fit)
139E2C2D2 (antibody, V domains shown, Mouse monoclonal antibody; also called mouse anti-human TIGIT monoclonal antibody 139E2C2D2) VH: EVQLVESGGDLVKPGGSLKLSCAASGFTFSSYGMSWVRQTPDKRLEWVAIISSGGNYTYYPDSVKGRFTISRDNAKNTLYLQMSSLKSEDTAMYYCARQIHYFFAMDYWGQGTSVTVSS VL: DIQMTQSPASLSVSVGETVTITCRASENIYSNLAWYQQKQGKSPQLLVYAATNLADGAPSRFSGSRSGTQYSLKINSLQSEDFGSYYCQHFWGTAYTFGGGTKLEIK	13.8
92E9D4B4 (antibody, V domains shown, Mouse monoclonal antibody; also called mouse anti-human TIGIT monoclonal antibody 92E9D4B4) VH: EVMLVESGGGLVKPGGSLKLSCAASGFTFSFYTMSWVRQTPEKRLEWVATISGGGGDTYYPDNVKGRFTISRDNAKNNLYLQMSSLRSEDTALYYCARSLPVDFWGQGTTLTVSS VL: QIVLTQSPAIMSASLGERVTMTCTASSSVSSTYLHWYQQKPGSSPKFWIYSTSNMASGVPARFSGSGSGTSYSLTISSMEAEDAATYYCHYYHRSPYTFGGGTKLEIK	7.99
104G12E12G2 (antibody, V domains shown, Mouse monoclonal antibody; also called mouse anti-human TIGIT monoclonal antibody 104G12E12G2) VH: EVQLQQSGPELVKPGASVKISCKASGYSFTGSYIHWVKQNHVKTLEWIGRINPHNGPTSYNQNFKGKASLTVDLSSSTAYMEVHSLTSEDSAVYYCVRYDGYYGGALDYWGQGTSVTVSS VL: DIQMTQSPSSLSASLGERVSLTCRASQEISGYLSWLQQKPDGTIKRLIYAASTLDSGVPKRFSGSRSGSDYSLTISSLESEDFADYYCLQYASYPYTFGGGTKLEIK	15.5

Taken from patent US20210095028A1.
